Test system: OVCAR-8 ovarian
Test: NCI-60 one-dose screen, 48 h (100 = growth as untreated, 0 = no growth, -100 = all killed)
Settings: 10 µM unless noted
The panel holds about 83,000 compounds, 20% with a hit somewhere; the sample as a whole holds those more often.
Each item that follows carries a reported growth.
EXPERIMENTAL_ENDPOINT: growth (%)

>>> print(df.to_string())
                                    molecule  experimental_endpoint  measured_number
 0  Cc1cc(NC(=O)NCCCOc2ccc(N3C(N)=NC(N)=NC3(C)C)cc2Cl)ccc1S(=O)(=O)F                 growth             31.7
 1            O=[N+]([O-])c1cc(Cl)c(Cl)cc1Cl                 growth              108
 2  CN1C2CCC1[C@@H](COC(=O)c1ccccc1)[C@@H](O)C2 (some centres not stated)                 growth              103
 3                         N#CCC(=O)c1ccccc1                 growth             96.5
 4  C/C(=C\c1ccn(-c2ccc(N)cc2F)n1)[C@@H]1C[C@@H]2O[C@]2(C)CCC[C@H](C)[C@H](O)[C@@H](C)C(=O)C(C)(C)[C@@H](O)CC(=O)O1                 growth             18.7
 5                   N#CCN(CC#N)[N+](=O)[O-]                 growth              109
 6                   CCC(Br)(CC)C(=O)NC(N)=O                 growth              113
 7  C[C@@]12CCCc3coc(c31)C(=O)c1cc3c(cc12)C(=O)C1=C(NCCS1(=O)=O)C3=O                 growth            -13.1
 8                           COc1ccc(N)cc1OC                 growth              115
 9  CC1=C2[C@H]3OC(=O)[C@@H](C)[C@@H]3CC[C@@]2(C)C=CC1=O                 growth              116
10             O=S(=O)(c1ccc(O)cc1)c1ccccc1O                 growth              102
11  CC/C(=C(\c1ccc(OCCN2CCOCC2)cc1)c1ccc(OC(=O)Cc2ccccc2)cc1)c1ccc(Cl)cc1                 growth              107
12                      Cc1ccc(P(=O)(O)O)cc1                 growth              110
13  C[C@]12C[C@H](c3ccoc3)OC(=O)[C@H]1CC[C@@]1(C)[C@@H]2[C@H]2C=C[C@]1(O)C(=O)O2                 growth             95.3
14  C=CC1CN2CCC1CC2C(O)c1ccnc2ccccc12 (configuration not stated)                 growth              127
15                O=C(NC1=NCC[Se]1)c1ccccc1O                 growth             47.4
16                             Cc1cc(N)ccc1N                 growth             96.1
17                         O=[P+](O)c1cccnc1                 growth              107
18  COc1cc(C2C3=C(CCCC3=O)N(CCO)c3cc4c(cc32)CCC4)cc(OC)c1OC (configuration not stated)                 growth             83.5
19  CC1=CC(=O)CCC12CCOC2=O (configuration not stated)                 growth              100
20     CC1(C)S[C@H]2CC[C@H]3OC(=O)[C@@H]1N23                 growth              102
21  CCCCn1c(=O)c(C(=O)NCc2ccccc2Cl)c(O)c2ccccc21                 growth             81.1
